biological target: FGFR3-BAIAP2L1 Ba/F3 cells (Homo sapiens, UniProt P22607); experiment: Ba/F3 cell viability assay (CellTiter-Glo 2.0), FGFR3-BAIAP2L1 Ba/F3; type: cell-based; details: FGFR3 > FGFR1 selectivity ratio in Ba/F3 FGFR fusion cell based assays
Sequence (P22607 23-806 limits assumed, change not shown): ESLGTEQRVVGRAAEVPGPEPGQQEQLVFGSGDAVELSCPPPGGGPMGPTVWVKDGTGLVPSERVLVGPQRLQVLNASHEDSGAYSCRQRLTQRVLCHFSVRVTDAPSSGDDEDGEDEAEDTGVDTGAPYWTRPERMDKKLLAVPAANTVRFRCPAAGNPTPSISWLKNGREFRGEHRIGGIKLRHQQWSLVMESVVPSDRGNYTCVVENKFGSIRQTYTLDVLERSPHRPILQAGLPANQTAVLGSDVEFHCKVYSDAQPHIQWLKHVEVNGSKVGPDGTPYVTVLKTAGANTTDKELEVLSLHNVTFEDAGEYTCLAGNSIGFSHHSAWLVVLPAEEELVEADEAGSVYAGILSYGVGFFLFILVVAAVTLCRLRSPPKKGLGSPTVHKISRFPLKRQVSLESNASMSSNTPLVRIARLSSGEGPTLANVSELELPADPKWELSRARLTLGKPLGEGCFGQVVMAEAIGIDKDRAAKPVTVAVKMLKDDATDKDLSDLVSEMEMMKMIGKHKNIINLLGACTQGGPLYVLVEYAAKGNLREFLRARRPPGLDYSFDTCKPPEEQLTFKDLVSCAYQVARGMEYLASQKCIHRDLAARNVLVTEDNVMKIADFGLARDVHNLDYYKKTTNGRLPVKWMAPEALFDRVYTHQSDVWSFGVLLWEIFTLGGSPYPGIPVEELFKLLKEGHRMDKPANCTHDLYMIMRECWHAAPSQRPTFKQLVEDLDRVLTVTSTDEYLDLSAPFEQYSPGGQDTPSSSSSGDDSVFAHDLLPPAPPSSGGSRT
Counter-ions that a name gives are not always drawn.
measured-metric: Ba/F3 FGFR1/FGFR3 Selectivity

> print(dat)
                                   compound                measured.metric  result.value
1  C[C@@H](Oc1ccc2[nH]nc(-c3ccc(N4CCNCC4)nc3)c2c1)c1c(Cl)cncc1Cl [Example 2, dihydrochloride]  Ba/F3 FGFR1/FGFR3 Selectivity            15
2  C[C@@H](Oc1ccc2[nH]nc(-c3ccc(N4CC5(C4)CN(S(C)(=O)=O)C5)nc3)c2c1)c1c(Cl)cccc1Cl [Example 170]  Ba/F3 FGFR1/FGFR3 Selectivity            14
3  C[C@@H](Oc1ccc2[nH]nc(-c3cnn(C4CCN(C(=O)CCN(C)C)CC4)c3)c2c1)c1c(Cl)cncc1Cl [Example 82]  Ba/F3 FGFR1/FGFR3 Selectivity            11
4  C[C@@H](Oc1ccc2[nH]nc(-c3ccc(N4CCC5(CC4)C(=O)NCCN5C)nc3)c2c1)c1c(Cl)cncc1Cl [Example 34]  Ba/F3 FGFR1/FGFR3 Selectivity            28
5  C[C@@H](Oc1ccc2[nH]nc(-c3ccc(N4CC5(CCN(S(C)(=O)=O)C5)C4)nc3)c2c1)c1c(Cl)cncc1Cl [Example 163]  Ba/F3 FGFR1/FGFR3 Selectivity            17
6  C[C@@H](Oc1ccc2[nH]nc(-c3ccc(N4CCNC(=O)CC4)nc3)c2c1)c1c(Cl)cncc1Cl [Example 30]  Ba/F3 FGFR1/FGFR3 Selectivity            18
7  C[C@@H](Oc1ccc2[nH]nc(-c3ccc(F)nc3)c2c1)c1c(Cl)cncc1Cl [Example 25]  Ba/F3 FGFR1/FGFR3 Selectivity            22

* * *

system: KG-1 cells (FGFR1-fusion); assay: KG-1 cancer cell line cell viability assay (CellTiter-Glo 2.0); type: cell-based; conditions: Homo sapiens, 72 hours, Cell Titer Glo 2.0
Listed below: IC50 values for each entry.
measured-metric: IC50

> print(dat)
                                   compound   result.value
1  C[C@@H](Oc1ccc2[nH]nc(-c3cnc(N4CCC5(CCC(=O)N5C)CC4)nc3)c2c1)c1c(Cl)cncc1Cl [Example 54]  100 to 300 nM
2  C[C@@H](Oc1ccc2[nH]nc(-c3ccc(N4CCN(C(N)=O)C5(CC5)C4)nc3)c2c1)c1c(Cl)cncc1Cl [Example 24]   20 to 100 nM
3  C[C@@H](Oc1ccc2[nH]nc(-c3cnn([C@H]4CCNC4)c3)c2c1)c1c(Cl)cncc1Cl [Example 88]  100 to 300 nM
4  C[C@@H](Oc1ccc2[nH]nc(-c3ccc(N4CCC5(CCC(=O)N5)CC4)nc3)c2c1)c1c(Cl)cncc1Cl [Example 29]   20 to 100 nM

* * *

Biological target: FGFR3-BAIAP2L1 Ba/F3 cells (Homo sapiens)
Experiment: Ba/F3 cell viability assay (CellTiter-Glo 2.0), FGFR3-BAIAP2L1 Ba/F3
Assay type: cell-based
Settings: read-out: Ba/F3 Cells FGFR3 (IC50 nM); FGFR3-BAIAP2L1 Ba/F3 cells, 48 hours, Cell Titer Glo 2.0
Source text: Experimental Purpose: Recombinant kinase fusions are transduced into parental Ba/F3, which becomes dependent upon this constitutive kinase activity for IL3-independent survival. Inhibition of kinase activity leads to cell death, which is monitored using CellTiter-Glo® 2.0 (Promega) which measures intracellular ATP concentration that in turn serves as a marker for viability. FGFR1-BCR Ba/F3 and FGFR3-BAIAP2L1 Ba/F3 were obtained from Advanced Cellular Dynamics (Seattle, WA) […]
measured-metric: IC50

> print(dat)
                               smiles.input                           target.of.assay  measured.metric   result.value
1  CCS(=O)(=O)N1CC2(CN(c3ncc(-c4n[nH]c5ccc(O[C@H](C)c6c(Cl)cncc6Cl)cc45)cn3)C2)C1  FGFR3-BAIAP2L1 Ba/F3 cells (Homo sapiens)             IC50   20 to 100 nM
2  CC(C)OC(=O)N1CCCC2(C1)CN(c1ncc(-c3n[nH]c4ccc(O[C@H](C)c5c(Cl)cncc5Cl)cc34)cn1)C2  FGFR3-BAIAP2L1 Ba/F3 cells (Homo sapiens)             IC50  100 to 300 nM
3  C[C@@H](Oc1ccc2[nH]nc(-c3ccc(N4CC5(CNC5)OC4=O)nc3)c2c1)c1c(Cl)cncc1Cl  FGFR3-BAIAP2L1 Ba/F3 cells (Homo sapiens)             IC50   20 to 100 nM
4  Cc1ncc(Cl)c([C@@H](C)Oc2ccc3[nH]nc(-c4cnn(C5CCN(C(C)C)CC5)c4)c3c2)c1Cl  FGFR3-BAIAP2L1 Ba/F3 cells (Homo sapiens)             IC50   20 to 100 nM
